From: the Immune Epitope Database (IEDB)

Target: HLA-B*57:01
Experiment: IEDB peptide-MHC binding, purified MHC/competitive/fluorescence; filed as Kd, often an IC50 or EC50 that approximates it; bounds were set here for any values at or beyond the usual limits of such assays
Settings: source organism: Mycobacterium tuberculosis variant bovis BCG str. Pasteur 1173P2

ordered-residues: RIRSERPAF
Kd (nM): 935

----------
Target: HLA-B*15:17
Assay: IEDB peptide-MHC binding, purified MHC/competitive/fluorescence; filed as Kd, often an IC50 or EC50 that approximates it; bounds were set here for any values at or beyond the usual limits of such assays
Settings: source organism: Entamoeba dispar SAW760
measurement-name: Kd

ordered-residues: LMTHTWHAK
measurement-name: Kd
result: ≥ 20 µM

----------
Molecular target: HLA-B*44:02
Test: IEDB peptide-MHC binding, purified MHC/competitive/fluorescence; filed as Kd, often an IC50 or EC50 that approximates it; bounds were set here for any values at or beyond the usual limits of such assays
Settings: source organism: Brucella melitensis bv. 1 str. 16M

ordered-residues: TTRAVNMEV
Kd: ≥ 5 µM

----------
Molecular target: HLA-B*15:01
Test: IEDB peptide-MHC binding, purified MHC/direct/fluorescence; filed as Kd, often an IC50 or EC50 that approximates it; bounds were set here for any values at or beyond the usual limits of such assays
Settings: source organism: Salmonella enterica
measurement-name: Kd

ordered-residues: VPQTDAGVT
result: ≥ 20 µM

----------
Biological target: HLA-A*29:02
Assay: IEDB peptide-MHC binding, purified MHC/direct/fluorescence; filed as Kd, often an IC50 or EC50 that approximates it; bounds were set here for any values at or beyond the usual limits of such assays
Details: source organism: Burkholderia mallei ATCC 23344
pKd: −log10 of the molar value.

ordered-residues: QHAWPLPPL
pKd: ≤ 4.70

----------
Biological target: HLA-A*11:01
Assay: IEDB peptide-MHC binding, purified MHC/competitive/fluorescence; bounds were set here for any values at or beyond the usual limits of such assays
Settings: source organism: Variola virus

ordered-residues: IFSAWISHR
IC50: ≥ 70.7 µM

----------
// reported pIC50 for each item listed
Target: HLA-A*24:02
Experiment: IEDB peptide-MHC binding, purified MHC/competitive/fluorescence; bounds were set here for any values at or beyond the usual limits of such assays
Details: source organism: Zaire ebolavirus
pIC50: −log10 of the molar value.

ordered-residues: IYIEGLMHN
result-qualifier: =
pIC50: 5.58
--
ordered-residues: TFSIPLGVI
result-qualifier: =
pIC50: 7.07
--
ordered-residues: SDMDYHKIL
result-qualifier: ≤
pIC50: 3.84
--
ordered-residues: TKKNLTRKI
result-qualifier: ≤
pIC50: 3.81
--
ordered-residues: RTAKVKNEV
result-qualifier: ≤
pIC50: 4.12
--
ordered-residues: KLFLESGAV
result-qualifier: ≤
pIC50: 3.74
--
ordered-residues: VIILFQRTF
result-qualifier: =
pIC50: 7.25
--
ordered-residues: SNRTPTVAP
result-qualifier: ≤
pIC50: 4.03
--
ordered-residues: PVMNHKNKF
result-qualifier: =
pIC50: 6.97
--
ordered-residues: EYTYPDSLE
result-qualifier: ≤
pIC50: 3.72
--
ordered-residues: IVNAQPKCN
result-qualifier: =
pIC50: 5.05

----------
Molecular target: HLA-B*46:01
Assay: IEDB peptide-MHC binding, purified MHC/direct/fluorescence; filed as Kd, often an IC50 or EC50 that approximates it; bounds were set here for any values at or beyond the usual limits of such assays
Settings: source organism: Brucella melitensis bv. 1 str. 16M
measurement-name: Kd

ordered-residues: TTRAVNMEV
result: ≥ 20 µM
